- Target: T1, LILRB2 (UniProt Q8N423 22-460, limits assumed)
- T1 construct: Panning used recombinantly expressed LILRB2-His; also called Leukocyte Immunoglobulin-like Receptor subfamily B member 2; LILRB2-His
- T1 sequence (Q8N423 22-460 limits assumed): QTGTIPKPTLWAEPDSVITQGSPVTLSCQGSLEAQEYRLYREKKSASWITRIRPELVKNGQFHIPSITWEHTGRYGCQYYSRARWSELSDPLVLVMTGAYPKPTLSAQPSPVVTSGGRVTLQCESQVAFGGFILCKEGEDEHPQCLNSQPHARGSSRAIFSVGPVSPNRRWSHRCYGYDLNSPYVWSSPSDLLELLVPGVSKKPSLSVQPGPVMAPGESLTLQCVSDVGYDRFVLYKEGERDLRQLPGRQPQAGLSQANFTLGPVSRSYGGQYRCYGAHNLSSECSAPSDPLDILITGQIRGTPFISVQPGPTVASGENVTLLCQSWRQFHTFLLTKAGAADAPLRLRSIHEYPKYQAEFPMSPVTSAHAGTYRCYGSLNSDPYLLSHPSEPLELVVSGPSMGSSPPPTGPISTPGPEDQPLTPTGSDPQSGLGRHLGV
- Measurement description: BLI, Octet Red96
Below, each entry is listed with its recorded pKd.
Scale note: pKd = -log10(concentration in M).

Worked set:
- Binder: "NeuB2-55 (antibody, V domains shown, also called Ab55; 55-HC/55-LC) VH: EVQLVQSGAEVKKPGSSVKVSCKASGGTFSSYAISWVRQAPGQGLEWMGGIIPIFGTANYAQKFQGRVTITADESTSTAYMELSSLRSEDTAVYYCARGVDQVDYWGQGTLVTVSS VL: QAVVTQPASVSGSPGQSITISCTGTSSDVGGYNYVSWYQQHPGKAPKLMIYDVSNRPSGVSNRFSGSKSGNTASLTISGLQAEDEADYYCSSYTSSSTPYVFGTGTKVTVL"
  Result type: "pKd"
  Data value: 7.25
- Binder: "NeuB2-60 (antibody, V domains shown, also called Ab60; 60-HC/60-LC) VH: QVQLQESGPGLVKPSGTLSLTCAVSGGSITSSNWWSWVRQPPGKGLEWIGDISHSGSTNYNPSLKGRVTMSVDRSKNQFFLKLSSVTAADTAMYYCARAFHGMDVWGQGTTVTVSS VL: QSVLTQPPSVSEAPRQRVTISCSGSSSNIANNAVNWYQQLPGKAPKLLIYYDDLLASGVSDRFSGSRSGTSAALAISGLQSEDEADYYCATWDDDLNGPIFGGGTKVTVL"
  Result type: "pKd"
  Data value: 7.62

// next entry
For the binder NeuB2-40 (antibody, V domains shown, also called Ab40; 40-HC/40-LC) VH: QVQLVQSGAEVKKPGASVKVSCKASGYTFTNYGISWVRQAPGQGLEWMGWISGDAGDTKFAQKFQGRVTMTTDTSTTTTYMELRSLRSDDTAVYYCARDGEYIPMFRGFDNYYGLDVWGQGTTVTVSS VL: QPVLTQPPSVSEAPRQRVTISCSGSSSNIGKNAVNWYQQFPGKAPKLLIYYDDLLPSGVSDRFSGSRSGTSASLAISGLQSEDEADYYCAAWDDRLKGYVFGTGTQLTVL , give its reported pKd.
7.72
